Value source: PubChem BioAssay

ASSAY_SYSTEM: Muscarinic acetylcholine receptor M4 (Homo sapiens) (UniProt P08173)
Sequence (P08173 whole entry, looked up): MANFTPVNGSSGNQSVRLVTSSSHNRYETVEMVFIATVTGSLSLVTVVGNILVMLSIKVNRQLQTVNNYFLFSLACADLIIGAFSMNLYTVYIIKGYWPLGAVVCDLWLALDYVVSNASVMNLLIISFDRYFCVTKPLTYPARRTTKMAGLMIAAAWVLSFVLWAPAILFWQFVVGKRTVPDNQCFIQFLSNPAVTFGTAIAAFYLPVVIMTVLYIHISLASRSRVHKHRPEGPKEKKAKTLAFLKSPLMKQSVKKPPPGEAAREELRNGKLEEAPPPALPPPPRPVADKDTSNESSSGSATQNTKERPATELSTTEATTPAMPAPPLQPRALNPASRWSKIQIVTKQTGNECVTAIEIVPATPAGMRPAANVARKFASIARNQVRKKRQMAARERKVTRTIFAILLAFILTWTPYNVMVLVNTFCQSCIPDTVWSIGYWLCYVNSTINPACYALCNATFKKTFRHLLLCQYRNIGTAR
ASSAY_INFO: compounds altering M4/GIRK thallium flux, either direction, primary screen, M4 allosteric agonist project, cell-based, HEK293 M4/GIRK, BTC-AM (AID 625);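 further: thallium influx through GIRK channels coupled to M4 in HEK293 cells with BTC-AM dye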
REPORTED_CONDITIONS: at 10 µM, actives lie on both sides
Is fluorescence slope at least 0.005? Then Yes. If not, No.

>>> df
                                   compound  label
0  CC1(C)CC(=O)C2=C(C1)OC(N)=C(C#N)C2C1C=CCCC1 (stereo unspecified)     No
1       CCCn1nc(Oc2nc(SC)nc(N(C)C)n2)ccc1=O    Yes
2       Cc1nn(CC(=O)N2CCOCC2)c(=O)c2ccccc12     No
3  O=C(O)c1cc2cccc(S(=O)(=O)N3CCOCC3)c2cc1O    Yes
4                      CC(C)(C)NC(=O)/C=N/O    Yes
